Hello, the source for this data is the supplement of paper PMC10307832, in case you need it.

- Tested on: CAL-12T
- Method Summary: relative viability (nuclei count vs DMSO), 5 days (fraction); higher = more cells survive
- Condition Context: first compound 0.04 µM
Provide the reported relative viability of each item.
Provide a numeric answer; units are not to be included.

Record Clc1ccc(Nc2nnc(Cc3ccncc3)c3ccccc23)cc1 [Vatalanib] + CC(=O)c1c(C)c2cnc(Nc3ccc(N4CCNCC4)cn3)nc2n(C2CCCC2)c1=O [Palbociclib] (partner 0.5 µM) , field relative viability: 0.409

Record Clc1ccc(Nc2nnc(Cc3ccncc3)c3ccccc23)cc1 [Vatalanib] + CCNC(=O)c1noc(-c2cc(C(C)C)c(O)cc2O)c1-c1ccc(CN2CCOCC2)cc1 [Luminespib] (partner 0.01 µM) , field relative viability: 0.722

Record COc1cc(N2CCC(C(N)=O)CC2)ccc1Nc1nc(N)c(Cl)c(Nc2ccccc2S(=O)(=O)C(C)C)n1 [HG-5-88-01] + COc1cc2c(Oc3ccc(NC(=O)C4(C(=O)Nc5ccc(F)cc5)CC4)cc3F)ccnc2cc1OCCCN1CCOCC1 [Foretinib] (partner 0.25 µM) , field relative viability: 1.06

Record COc1cc(N2CCC(C(N)=O)CC2)ccc1Nc1nc(N)c(Cl)c(Nc2ccccc2S(=O)(=O)C(C)C)n1 [HG-5-88-01] + N=C(N)NC(=N)NCCc1ccccc1 [Phenformin] (partner 250 µM) , field relative viability: 0.543

Record COc1cc(N2CCC(C(N)=O)CC2)ccc1Nc1nc(N)c(Cl)c(Nc2ccccc2S(=O)(=O)C(C)C)n1 [HG-5-88-01] + Cc1nc(NC(=O)N2CCC[C@H]2C(N)=O)sc1-c1ccnc(C(C)(C)C(F)(F)F)c1 [Alpelisib] (partner 2 µM) , field relative viability: 1.11

Record Clc1ccc(Nc2nnc(Cc3ccncc3)c3ccccc23)cc1 [Vatalanib] + O=C(CCCCCCC(=O)Nc1ccccc1)NO [Vorinostat] (partner 1 µM) , field relative viability: 0.872

Record COc1cc(N2CCC(C(N)=O)CC2)ccc1Nc1nc(N)c(Cl)c(Nc2ccccc2S(=O)(=O)C(C)C)n1 [HG-5-88-01] + NC(=O)Nc1cc(-c2cccc(F)c2)sc1C(=O)N[C@H]1CCCNC1 [AZD7762] (partner 0.2 µM) , field relative viability: 0.71

Record C[C@@H]1CN(CC(=O)Nc2ccc3c(c2)Cc2cccc(-c4cc(=O)cc(N5CCOCC5)o4)c2S3)C[C@H](C)O1 + CC1(C)CCC(c2ccc(Cl)cc2)=C(CN2CCN(c3ccc(C(=O)NS(=O)(=O)c4ccc(N[C@H](CCN5CCOCC5)CSc5ccccc5)c(S(=O)(=O)C(F)(F)F)c4)cc3)CC2)C1 [Navitoclax] (partner 0.5 µM) , field relative viability: 1.42

----------
Provide the reported relative viability of each item.
- System: EPLC-272H
- Method Summary: relative viability (nuclei count vs DMSO), 5 days (fraction); higher = more cells survive
- Condition Context: first compound 1.265 µM
Provide a numeric answer; units are not to be included.

Record COc1cc(N2CCC(C(N)=O)CC2)ccc1Nc1nc(N)c(Cl)c(Nc2ccccc2S(=O)(=O)C(C)C)n1 [HG-5-88-01] + COc1cccc2cc(-c3nc([C@H]4CC[C@H](C(=O)O)CC4)n4ncnc(N)c34)[nH]c12 [OSI-027] (partner 0.5 µM) , field relative viability: 0.242

Record COc1cc(N2CCC(C(N)=O)CC2)ccc1Nc1nc(N)c(Cl)c(Nc2ccccc2S(=O)(=O)C(C)C)n1 [HG-5-88-01] + NC(=O)Nc1cc(-c2cccc(F)c2)sc1C(=O)N[C@H]1CCCNC1 [AZD7762] (partner 0.2 µM) , field relative viability: 0.234

Record Clc1ccc(Nc2nnc(Cc3ccncc3)c3ccccc23)cc1 [Vatalanib] + C[C@@H](Oc1cc(-c2cnn(C3CCNCC3)c2)cnc1N)c1c(Cl)ccc(F)c1Cl [Crizotinib] (partner 1 µM) , field relative viability: 0.919

Record Clc1ccc(Nc2nnc(Cc3ccncc3)c3ccccc23)cc1 [Vatalanib] + C[C@]1(O)C[C@@H](c2nc(-c3ccc4ccc(-c5ccccc5)nc4c3)c3c(N)nccn32)C1 [Linsitinib] (partner 1 µM) , field relative viability: 1.18

Record Clc1ccc(Nc2nnc(Cc3ccncc3)c3ccccc23)cc1 [Vatalanib] + CCNC(=O)c1noc(-c2cc(C(C)C)c(O)cc2O)c1-c1ccc(CN2CCOCC2)cc1 [Luminespib] (partner 0.01 µM) , field relative viability: 0.2

Record Clc1ccc(Nc2nnc(Cc3ccncc3)c3ccccc23)cc1 [Vatalanib] + N=C(N)NC(=N)NCCc1ccccc1 [Phenformin] (partner 250 µM) , field relative viability: 0.349

Record COc1cc(N2CCC(C(N)=O)CC2)ccc1Nc1nc(N)c(Cl)c(Nc2ccccc2S(=O)(=O)C(C)C)n1 [HG-5-88-01] + Cc1cc(Nc2cc(N3CCN(C)CC3)nc(Sc3ccc(NC(=O)C4CC4)cc3)n2)n[nH]1 [Tozasertib] (partner 0.1 µM) , field relative viability: 0.141

Record Clc1ccc(Nc2nnc(Cc3ccncc3)c3ccccc23)cc1 [Vatalanib] + CS(=O)(=O)CCNCc1ccc(-c2ccc3ncnc(Nc4ccc(OCc5cccc(F)c5)c(Cl)c4)c3c2)o1 [Lapatinib] (partner 2 µM) , field relative viability: 0.985

Record Clc1ccc(Nc2nnc(Cc3ccncc3)c3ccccc23)cc1 [Vatalanib] + CC1(C)CCC(c2ccc(Cl)cc2)=C(CN2CCN(c3ccc(C(=O)NS(=O)(=O)c4ccc(N[C@H](CCN5CCOCC5)CSc5ccccc5)c(S(=O)(=O)C(F)(F)F)c4)cc3)CC2)C1 [Navitoclax] (partner 0.5 µM) , field relative viability: 1.05
